Biological target: APP-Avi-soluble human LOX-1(61-273) (human, UniProt P78380 61-273)
Assay: SET, IgG vs soluble human LOX-1
Readings of Kd for the listed binders
PARAMETER_MEASURED: Kd (pM)

MOR021461 (antibody, V domains shown, IgG (human IgG1f LALA); parent MOR20144 with the printed HCDR2 stretch exchanged) VH: QVQLLESGGGLVQPGGSLRLSCAASGFTFSDYALHWVRQAPGKGLEWVSVISYAGGFTYYADSVKGRFTISRDNSKNTLYLQMNSLRAEDTAVYYCARSPGLTSYHDSWGQGTLVTVSS VL: DIVLTQPPSVSGAPGQRVTISCSGSSSNIGSNYVSWYQQLPGTAPKLLIHSNSHRPSGVPDRFSGSKSGTSASLAITGLQAEDEADYYCQSWDYESERVVFGGGTKLTVLG | 0.2
MOR021438 (antibody, V domains shown, IgG (human IgG1f LALA); parent MOR20159 with the printed LCDR3 stretch exchanged) VH: QVQLVQSGAEVKKPGSSVKVSCKASGGTFSDYAISWVRQAPGQGLEWMGGIVPIVGTANYAQKFQGRVTITADESTSTAYMELSSLRSEDTAVYYCARDSSTSYYYYFDYWGQGTLVTVSS VL: DIQMTQSPSSLSASVGDRVTITCRASQDINSWLAWYQQKPGKAPKLLIYQASNLQSGVPSRFSGSGSGTDFTLTISSLQPEDFATYYCQQMHRHPITFGQGTKVEIKR | 2
MOR021459 (antibody, V domains shown, IgG (human IgG1f LALA); parent MOR20144 with the printed HCDR2 stretch exchanged) VH: QVQLLESGGGLVQPGGSLRLSCAASGFTFSDYALHWVRQAPGKGLEWVSVISYVGGFKFYADSVKGRFTISRDNSKNTLYLQMNSLRAEDTAVYYCARSPGLTSYHDSWGQGTLVTVSS VL: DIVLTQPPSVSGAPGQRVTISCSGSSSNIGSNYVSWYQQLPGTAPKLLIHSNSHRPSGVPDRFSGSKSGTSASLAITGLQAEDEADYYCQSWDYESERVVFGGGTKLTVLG | 0.4
MOR021449 (antibody, V domains shown, IgG (human IgG1f LALA); parent MOR20052 with the printed HCDR2 stretch exchanged) VH: QVQLVQSGAEVKKPGSSVKVSCKASGGTFSDYAISWVRQAPGQGLEWMGGIQPGFAGAWYAQKFQGRVTITADESTSTAYMELSSLRSEDTAVYYCAREPSPLYGPYSDYVMDPWGQGTLVTVSS VL: DIALTQPASVSGSPGQSITISCTGTSSDVGYFNFVSWYQQHPGKAPKLMIYDVSNRPSGVSNRFSGSKSGNTASLTISGLQAEDEADYYCASYGWDSSWVFGGGTKLTVLG | 0.3
MOR020152 (antibody, human IgG1, lambda, L234A L235A, V domains shown, also called MOR20152) VH: QVQLVQSGAEVKKPGSSVKVSCKASGGTFSSYAISWVRQAPGQGLEWMGRIIPIFGGANYAQKFQGRVTITADESTSTAYMELSSLRSEDTAVYYCARDPLYRSDYYYHWFDFWGQGTLVTVSS VL: DIALTQPASVSGSPGQSITISCTGTSSDVGNFNYVSWYQQHPGKAPKLMIYGVNNRPSGVSNRFSGSKSGNTASLTISGLQAEDEADYYCAAYGWALDEVVFGGGTKLTVLG | 1.4
MOR021443 (antibody, V domains shown, IgG (human IgG1f LALA); parent MOR20133 with the printed HCDR2 stretch exchanged) VH: QVQLVQSGAEVKKPGESLKISCKGSGYSFTNYWIAWVRQMPGKGLEWMGRIFPGKSETSYSPSFQGQVTISADKSISTAYLQWSSLKASDTAMYYCARGKRGATHPTQYEGWEVYGFDPWGQGTLVTVSS VL: DIELTQPPSVSVSPGQTASITCSGDALGGKYASWYQQKPGQAPVLVIYDDNKRPSGIPERFSGSNSGNTATLTISGTQAEDEADYYCQSWAFYSGVFGGGTKLTVLG | 75
MOR021436 (antibody, V domains shown, IgG (human IgG1f LALA); parent MOR20159 with the printed LCDR3 stretch exchanged) VH: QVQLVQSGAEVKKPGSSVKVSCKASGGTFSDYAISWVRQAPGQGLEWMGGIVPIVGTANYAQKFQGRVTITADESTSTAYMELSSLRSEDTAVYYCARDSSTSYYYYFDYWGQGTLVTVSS VL: DIQMTQSPSSLSASVGDRVTITCRASQDINSWLAWYQQKPGKAPKLLIYQASNLQSGVPSRFSGSGSGTDFTLTISSLQPEDFATYYCQQMQTSLITFGQGTKVEIKR | 4
MOR021455 (antibody, V domains shown, IgG (human IgG1f LALA); parent MOR20152 with the printed HCDR2 stretch exchanged) VH: QVQLVQSGAEVKKPGSSVKVSCKASGGTFSSYAISWVRQAPGQGLEWMGRIIPQWAGTPEYAQKFQGRVTITADESTSTAYMELSSLRSEDTAVYYCARDPLYRSDYYYHWFDFWGQGTLVTVSS VL: DIALTQPASVSGSPGQSITISCTGTSSDVGNFNYVSWYQQHPGKAPKLMIYGVNNRPSGVSNRFSGSKSGNTASLTISGLQAEDEADYYCAAYGWALDEVVFGGGTKLTVLG | 0.3
MOR021456 (antibody, V domains shown, IgG (human IgG1f LALA); parent MOR20151 with the printed HCDR2 stretch exchanged) VH: QVQLVESGGGLVKPGGSLRLSCAASGFTFSSYALSWVRQAPGKGLEWVGRIRYWPDGYTTHYAASVKGRFTISRDDSKNTLYLQMNSLKTEDTAVYYCARDFWADHYYYFDYWGQGTLVTVSS VL: DIALTQPASVSGSPGQSITISCTGTSSDVGYINYVNWYQQHPGKAPKLMIYEVSNRPSGVSNRFSGSKSGNTASLTISGLQAEDEADYYCASWDWYDNVVFGGGTKLTVLG | 2
MOR021457 (antibody, V domains shown, IgG (human IgG1f LALA); parent MOR20151 with the printed HCDR2 stretch exchanged) VH: QVQLVESGGGLVKPGGSLRLSCAASGFTFSSYALSWVRQAPGKGLEWVGRTRMWTVGYTTHYAASVKGRFTISRDDSKNTLYLQMNSLKTEDTAVYYCARDFWADHYYYFDYWGQGTLVTVSS VL: DIALTQPASVSGSPGQSITISCTGTSSDVGYINYVNWYQQHPGKAPKLMIYEVSNRPSGVSNRFSGSKSGNTASLTISGLQAEDEADYYCASWDWYDNVVFGGGTKLTVLG | 1
